- Measured target: benzodiazepine receptors
- Assay explanation: Affinity for benzodiazepine receptors (displacement of 3H diazepam, rat brain cortex homogenate)
- Condition set: rat brain cortices; 3H diazepam 10^-9 M, 30 minutes at 0° C., pH 7.4; read-out: Cl 50 (concentration inhibiting by 50% the specific bonding of 3H diazepam)
Counter-ions that a name gives are not always drawn.
Quantity name: pIC50
Answers are plain numbers, as −log10 of the molar value.

These solved cases illustrate the format of a correct answer.
[
  {
    "Compound": "O=c1c2n[nH]c3ccccc3c-2nn1-c1ccccc1 [Example 3]",
    "Measurement": 9.05
  },
  {
    "Compound": "O=c1c2n[nH]c3ccccc3c-2nn1-c1ccc(OCc2ccccc2)cc1 [Example 5]",
    "Measurement": 7.74
  },
  {
    "Compound": "Cl.O=c1c2n[nH]c3ccccc3c-2nn1-c1ccccn1 [Example 8, hydrochloride]",
    "Measurement": 8.51
  },
  {
    "Compound": "COc1ccc(-n2nc3c4ccccc4[nH]nc-3c2=O)cc1 [Example 4]",
    "Measurement": 8.60
  },
  {
    "Compound": "O=c1c2n[nH]c3ccccc3c-2nn1-c1ccc(Cl)cc1 [Example 2]",
    "Measurement": 8.43
  }
]

I would be grateful if you could share the reported pIC50 for O=c1c2n[nH]c3ccccc3c-2nn1-c1nccs1 [Example 9, hydrochloride] .
8.51

====

- System: mice
- Assay explanation: Acute toxicity (lethal dose LD0)
- Type: in vivo
- Condition set: oral
Quantity name: LD0 (maximum dose not causing any mortality in 8 days)

For each listed entry, give its LD0 (maximum dose not causing any mortality in 8 days).
1. O=c1c2n[nH]c3ccccc3c-2nn1-c1cccc(C(F)(F)F)c1
2. O=c1c2n[nH]c3ccccc3c-2nn1-c1ccccc1

["> 400", "> 200"]

====

- System: mice
- Assay explanation: Acute toxicity (lethal dose LD0)
- Type: in vivo
- Condition set: oral
Counter-ions that a name gives are not always drawn.
Kindly state LD0 (maximum dose not causing any mortality in 8 days) for each of the entries shown.

These solved cases illustrate the format of a correct answer.
[
  {
    "Compound": "Cl.O=c1c2n[nH]c3ccccc3c-2nn1-c1ccccn1",
    "Measured target": "mice",
    "Measurement": "> 400"
  },
  {
    "Compound": "O=c1c2n[nH]c3ccccc3c-2nn1C1=NCCS1 [Example 10, hydrochloride]",
    "Measured target": "mice",
    "Measurement": "> 400"
  },
  {
    "Compound": "O=c1c2n[nH]c3ccc(Cl)cc3c-2nn1-c1ccccc1",
    "Measured target": "mice",
    "Measurement": "> 400"
  },
  {
    "Compound": "O=c1c2n[nH]c3ccccc3c-2nn1-c1ccc(OCc2ccccc2)cc1",
    "Measured target": "mice",
    "Measurement": "> 400"
  },
  {
    "Compound": "Cc1ccccc1-n1nc2c3ccccc3[nH]nc-2c1=O",
    "Measured target": "mice",
    "Measurement": 200
  }
]

# context switch: different compound, same LD0 (maximum dose not causing any mortality in 8 days)
API: value(readout= LD0 (maximum dose not causing any mortality in 8 days), system= mice, query= COc1ccc(-n2nc3c4ccccc4[nH]nc-3c2=O)cc1 )
> 400

Source listed as patent US4591589A.
